Numbers sourced from paper PMC3218832.

Molecular target: RELB subunit;p52 subunit (Homo sapiens;Homo sapiens, UniProt Q01201;Q00653 120-401;4-332)
Sequence 1: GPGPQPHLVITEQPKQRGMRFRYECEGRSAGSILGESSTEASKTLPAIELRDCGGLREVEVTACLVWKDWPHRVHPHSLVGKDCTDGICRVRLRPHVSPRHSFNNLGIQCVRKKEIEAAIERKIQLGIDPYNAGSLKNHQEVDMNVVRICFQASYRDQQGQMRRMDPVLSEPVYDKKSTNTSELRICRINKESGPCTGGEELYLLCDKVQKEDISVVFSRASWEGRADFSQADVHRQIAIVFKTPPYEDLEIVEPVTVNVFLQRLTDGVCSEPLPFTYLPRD
Sequence 2: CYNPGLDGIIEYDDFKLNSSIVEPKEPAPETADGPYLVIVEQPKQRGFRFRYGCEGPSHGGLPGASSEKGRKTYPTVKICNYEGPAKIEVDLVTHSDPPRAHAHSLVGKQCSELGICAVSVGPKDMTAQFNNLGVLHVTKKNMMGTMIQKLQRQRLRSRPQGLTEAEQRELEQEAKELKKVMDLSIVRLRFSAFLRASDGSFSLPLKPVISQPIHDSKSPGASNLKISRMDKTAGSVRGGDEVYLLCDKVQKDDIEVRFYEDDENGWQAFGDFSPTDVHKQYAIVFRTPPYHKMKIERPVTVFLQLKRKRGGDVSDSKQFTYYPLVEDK
Test: protein binding microarray; high values mean tight binding
Settings: dsDNA, one strand shown
endpoint: binding signal (z-score)
Express it in z-score; write the number only.

Asked: Item GAGAAAACCCT has what recorded binding signal?
Given back: 0.361

Asked: Item AAAGGCACCCT has what recorded binding signal?
Given back: -0.711

Asked: Item GGGAAGACCCT has what recorded binding signal?
Given back: 1.01

Asked: Item CAATAACTCCC has what recorded binding signal?
Given back: -0.00688

Asked: Item CGAGGCTTCCT has what recorded binding signal?
Given back: -1.05

* * *

Target: C-Rel subunit;p52 subunit (Homo sapiens;Homo sapiens, UniProt Q04864;Q00653 1-285;4-332)
Sequence 1: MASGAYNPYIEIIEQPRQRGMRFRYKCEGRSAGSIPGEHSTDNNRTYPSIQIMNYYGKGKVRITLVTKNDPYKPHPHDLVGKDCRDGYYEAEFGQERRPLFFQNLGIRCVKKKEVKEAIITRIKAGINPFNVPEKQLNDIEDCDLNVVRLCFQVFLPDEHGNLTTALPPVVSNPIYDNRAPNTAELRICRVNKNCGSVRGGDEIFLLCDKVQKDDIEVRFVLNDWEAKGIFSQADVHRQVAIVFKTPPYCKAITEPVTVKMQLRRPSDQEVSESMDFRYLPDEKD
Sequence 2: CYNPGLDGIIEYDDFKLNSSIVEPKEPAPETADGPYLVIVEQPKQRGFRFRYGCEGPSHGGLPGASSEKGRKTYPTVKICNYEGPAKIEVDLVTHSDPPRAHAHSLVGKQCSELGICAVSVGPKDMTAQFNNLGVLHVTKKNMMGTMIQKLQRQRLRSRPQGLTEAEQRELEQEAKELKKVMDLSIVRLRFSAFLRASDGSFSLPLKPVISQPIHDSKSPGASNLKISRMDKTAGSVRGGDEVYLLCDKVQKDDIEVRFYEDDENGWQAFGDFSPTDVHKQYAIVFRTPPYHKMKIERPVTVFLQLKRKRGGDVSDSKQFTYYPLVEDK
Experiment: protein binding microarray; high values mean tight binding
Conditions: dsDNA, one strand shown
endpoint: binding signal (z-score)
Express it in z-score; write the number only.

Answered examples (5):
{"entry-sequence": "CGGGTATTCCT", "binding signal / z-score": 1.22}
{"entry-sequence": "CGAAATCCCCC", "binding signal / z-score": 2.36}
{"entry-sequence": "GAGGGCCTCCT", "binding signal / z-score": -0.843}
{"entry-sequence": "CGAGTCTTCCC", "binding signal / z-score": -0.153}
{"entry-sequence": "CGGATGGCCCT", "binding signal / z-score": -0.706}

Asked: Item CAGTGAACCCC has what recorded binding signal?
Given back: -0.119

Asked: Item AGGTTTTCCCC has what recorded binding signal?
Given back: 2.63

Asked: Item GAATACTCCCC has what recorded binding signal?
Given back: 0.479

Asked: Item CAGGATATCCC has what recorded binding signal?
Given back: -0.032

Asked: Item GAAGTTATCCC has what recorded binding signal?
Given back: -0.251

Asked: Item GAAATGACCCT has what recorded binding signal?
Given back: -0.223
